- Tested on: CCRIS mutagenicity, Ames/micronucleus/aberration tests
- test: CCRIS mutagenicity studies
- condition_info: Test System: AMES SALMONELLA TYPHIMURIUM; Strain/Indicator: TA97; Metabolic Activation: RAT, LIVER, S-9, AROCLOR 1254; Method: STANDARD PLATE
The source made the active and inactive calls. The rule behind the calls is not given here.
Hi there, use one of these labels in your reply, thanks! active, inactive

O=C(COc1cc(Cl)c(Cl)cc1Cl)N[C@@H](Cc1c[nH]c2ccccc12)C(=O)O : inactive

Request: Per the assay record, what outcome was assigned to COS(C)(=O)=O ?
Result: inactive

###

- System: CCRIS mutagenicity, Ames/micronucleus/aberration tests
- test: CCRIS mutagenicity studies
- condition_info: Test System: AMES SALMONELLA TYPHIMURIUM; Strain/Indicator: TA100; Metabolic Activation: NONE; Method: PREINCUBATION
The source made the active and inactive calls. No rule for the calls is given here.
Hi there, use one of these labels in your reply, thanks! T for active, F for inactive

Illustrative cases are given below, each with its answer.
C[C@H]1COc2c(N3CCN(C)CC3)c(F)cc3c(=O)c(C(=O)O)cn1c23 : F
CCOc1ccccc1[N+](=O)[O-] : T
CCCCCCCCOC(=O)c1ccccc1C(=O)OCCCCCCCC : F
ClC[C@H]1CO1 : T
Nc1ccccc1C(=O)C[C@H](N)C(=O)O : F

Request: Per the assay record, what outcome was assigned to O=Nc1ccc(O)cc1 ?
Result: F

Request: Per the assay record, what outcome was assigned to Cc1cc(-c2ccc(N/N=C3\C(=O)c4c(O)cc(S(=O)(=O)O)cc4C=C3S(=O)(=O)O)c(C)c2)ccc1N/N=C1\C(=O)c2c(O)cc(S(=O)(=O)O)cc2C=C1S(=O)(=O)O ?
Result: F

Request: Per the assay record, what outcome was assigned to NC(N)=O ?
Result: F

Request: Per the assay record, what outcome was assigned to Cc1cc([N+](=O)[O-])ccc1N ?
Result: F

Request: Per the assay record, what outcome was assigned to O=C(O)c1cc(=O)c2cccc(O)c2[nH]1 ?
Result: F

Request: Per the assay record, what outcome was assigned to Oc1cccc2cccnc12 ?
Result: F

Request: Per the assay record, what outcome was assigned to COc1ccccc1/C=C/C=O ?
Result: F

Request: Per the assay record, what outcome was assigned to Oc1ccc2ccccc2c1N=Nc1ccccc1 ?
Result: F

Request: Per the assay record, what outcome was assigned to Cc1cccc(C#N)c1 ?
Result: F

###

- Tested on: CCRIS mutagenicity, Ames/micronucleus/aberration tests
- test: CCRIS mutagenicity studies
- condition_info: Test System: AMES SALMONELLA TYPHIMURIUM; Strain/Indicator: TA1535; Metabolic Activation: RAT, LIVER, S-9, AROCLOR 1254; Method: PREINCUBATION
Activity calls are given as the source filed them. How the calls were made is not given here.
Hi there, use one of these labels in your reply, thanks! t for active, f for inactive

Request: Per the assay record, what outcome was assigned to Clc1cccc(Cl)c1Cl ?
Result: f

Request: Per the assay record, what outcome was assigned to CN=[N+](C)[O-] ?
Result: f

Request: Per the assay record, what outcome was assigned to C1CNCCN1 ?
Result: f

Request: Per the assay record, what outcome was assigned to CC1(C)COC1=O ?
Result: f

Request: Per the assay record, what outcome was assigned to CC(C)NCC(O)c1ccc(O)c(O)c1 (stereo not given) ?
Result: f

Request: Per the assay record, what outcome was assigned to CC(=O)NC[C@H](O)COc1cccc2ccccc12 ?
Result: f

Request: Per the assay record, what outcome was assigned to CC(Cl)CCCC(Cl)CCCC(Cl)CCCC(Cl)CCCC(Cl)CCCC(Cl)CCCl (stereo not given) ?
Result: f

Request: Per the assay record, what outcome was assigned to ClC(Cl)=C(Cl)Cl ?
Result: f

Request: Per the assay record, what outcome was assigned to Oc1ccccc1 ?
Result: f

Request: Per the assay record, what outcome was assigned to CCCCOC(=O)c1ccc(N)cc1 ?
Result: f

Request: Per the assay record, what outcome was assigned to ClC(Br)Br ?
Result: f

Request: Per the assay record, what outcome was assigned to O=P1(N(CCCl)CCCl)NCCCO1 (stereo not given) ?
Result: t

Request: Per the assay record, what outcome was assigned to O=[N+]([O-])c1c(Cl)c(Cl)cc(Cl)c1Cl ?
Result: f

Request: Per the assay record, what outcome was assigned to CC1=CC[C@H]2C(C)=CC[C@@H](C(C)C)[C@@H]2C1 ?
Result: f

Request: Per the assay record, what outcome was assigned to COc1cc(CNC(=O)CCCC/C=C/C(C)C)ccc1O ?
Result: f

meta.source: PubChem BioAssay AID1259407
